- procedure-details: Cytotoxicity against HEK293 cells assessed as reduction in cell viability at 50 uM incubated for 48 hrs by MTT assay relative to control
- Assay type: cell-based
- condition-set: human, read-out: INH
Overview of recorded cytotoxicity at 48 h, 50 µM for various compounds
A number alone suffices; assume %.

// below: answered compounds
CC(C)c1ccc(S(=O)(=O)N2C(=O)NC(=O)C23CCCc2ccccc23)cc1 (configuration not stated): 16.2
Cc1ccc(S(=O)(=O)N2C(=O)NC3(CCCc4ccccc43)C2=O)cc1 (configuration not stated): 19.1

Which cytotoxicity at 48 h, 50 µM value belongs to O=C1NC(=O)C2(CCCc3ccccc32)N1S(=O)(=O)c1ccc(Br)cc1 (configuration not stated) ?
18.8

Another compound to check: "CC(/C=C1\SC(=S)N(CC(=O)O)C1=O)=C\c1ccccc1"
12

Another compound to check: O=C1NC2(CCCc3ccccc32)C(=O)N1S(=O)(=O)c1ccc(Cl)cc1 (configuration not stated)
16.1

Another compound to check: CC(=O)c1ccc(S(=O)(=O)N2C(=O)NC3(CCCc4ccccc43)C2=O)cc1 (configuration not stated)
24.4

Another compound to check: COc1ccc(S(=O)(=O)N2C(=O)NC3(CCCc4ccccc43)C2=O)cc1 (configuration not stated)
13.6

----------
- procedure-details: Cytotoxicity against HEK293 cells assessed as reduction in cell viability at 50 uM incubated for 48 hrs by MTT assay relative to control
- Assay type: cell-based
- condition-set: human, read-out: INH
Overview of recorded cytotoxicity at 48 h, 50 µM for various compounds
A number alone suffices; assume %.

Which cytotoxicity at 48 h, 50 µM value belongs to O=C1NC(=O)C2(CCCc3ccccc32)N1S(=O)(=O)c1ccc([N+](=O)[O-])cc1 (stereo not given) ?
36

Another compound to check: O=C1NC2(CCCc3ccccc32)C(=O)N1S(=O)(=O)c1ccc([N+](=O)[O-])cc1 (stereo not given)
14.2

Another compound to check: O=C1NC2(CCCc3ccccc32)C(=O)N1S(=O)(=O)c1ccc(Br)cc1 (stereo not given)
18.9

Another compound to check: COc1ccc(S(=O)(=O)N2C(=O)NC(=O)C23CCCc2ccccc23)cc1 (stereo not given)
21.1

Another compound to check: O=C1NC2(CCCc3ccccc32)C(=O)N1S(=O)(=O)c1ccc(F)cc1 (stereo not given)
26.1

Another compound to check: O=C1NC(=O)C2(CCCc3ccccc32)N1S(=O)(=O)c1ccc(F)cc1 (stereo not given)
18.9

Another compound to check: Cc1ccc(S(=O)(=O)N2C(=O)NC(=O)C23CCCc2ccccc23)cc1 (stereo not given)
22.9

Another compound to check: CC(=O)c1ccc(S(=O)(=O)N2C(=O)NC(=O)C23CCCc2ccccc23)cc1 (stereo not given)
23.2

Another compound to check: O=C1NC(=O)C2(CCCc3ccccc32)N1S(=O)(=O)c1ccc(Cl)cc1 (stereo not given)
12.6

Another compound to check: CC(C)c1ccc(S(=O)(=O)N2C(=O)NC3(CCCc4ccccc43)C2=O)cc1 (stereo not given)
12.5

----------
- tested-system: Aldo-keto reductase family 1 member B1 (Homo sapiens, UniProt P15121)
- procedure-details: Inhibition of human recombinant ALR2 expressed in Escherichia coli using DL-glyceraldehyde as substrate and NADPH preincubated for 5 mins followed by substrate addition and measured after 30 mins at 2 mins interval by spectrophotometry relative to control
reported-endpoint: log10(IC50) (log10 of the value in µM)
Scale type: logarithmic (base 10). Underlying IC50 unit: µM.

// below: answered molecules
O=C1NC2(CCCc3ccccc32)C(=O)N1S(=O)(=O)c1ccc(Br)cc1 (centres undefined): 1.03
CC(=O)c1ccc(S(=O)(=O)N2C(=O)NC3(CCCc4ccccc43)C2=O)cc1 (centres undefined): 1.58
O=C1NC(=O)C2(CCCc3ccccc32)N1S(=O)(=O)c1ccc(F)cc1 (centres undefined): 0.77

Which log10(IC50) value belongs to CC(=O)c1ccc(S(=O)(=O)N2C(=O)NC(=O)C23CCCc2ccccc23)cc1 (centres undefined) ?
-0.19

Another molecule to check: CC(C)c1ccc(S(=O)(=O)N2C(=O)NC3(CCCc4ccccc43)C2=O)cc1 (centres undefined)
0.90
